Organism: Rattus norvegicus
Assay: Open TG-GATES - Regimen: Single
Format: toxicity, organism-based, Sprague-Dawley
Parameters: regimen Single, gender Male, age 6 weeks
Conditions: in vivo, po, 300 mg/kg, 6 h, tissue Plasma, route gavage, dose level Middle
Friendly reminder: ALT below 40 IU/L is True, at or above is False.

Problem: For the molecule Cc1nnc2n1-c1ccc(Cl)cc1C(c1ccccc1Cl)=NC2 , is ALT under 40 IU/L?
True

Now try CNC(=C[N+](=O)[O-])NCCSCc1ccc(CN(C)C)o1 .
True

Now try O=C(OC[C@H]1O[C@@H](OC(=O)c2cc(O)c(O)c(OC(=O)c3cc(O)c(O)c(O)c3)c2)[C@H](OC(=O)c2cc(O)c(O)c(OC(=O)c3cc(O)c(O)c(O)c3)c2)[C@@H](OC(=O)c2cc(O)c(O)c(OC(=O)c3cc(O)c(O)c(O)c3)c2)[C@@H]1OC(=O)c1cc(O)c(O)c(OC(=O)c2cc(O)c(O)c(O)c2)c1)c1cc(O)c(O)c(OC(=O)c2cc(O)c(O)c(O)c2)c1 .
True

Now try COC(=O)C1=C(C)NC(C)=C(C(=O)OC)C1c1ccccc1[N+](=O)[O-] .
False

Now try CN/C(=N/CCSCc1nc[nH]c1C)NC#N .
True

* * *

I'd appreciate it if you could supply GLC values for the items below.
Organism: Rattus norvegicus
Assay: Open TG-GATES - Regimen: Single
Assay type: toxicity, organism-based, Sprague-Dawley
Parameters: regimen Single, gender Male, age 6 weeks
Details: in vivo, po, 0 mg/kg, 9 h, tissue Plasma, route gavage, dose level Control
State just the number; it will be interpreted in mg/dL.

Please report the recorded GLC for CN1C(=O)CCS(=O)(=O)C1c1ccc(Cl)cc1 (centres undefined) .
192.6

Now try CNC(=C[N+](=O)[O-])NCCSCc1ccc(CN(C)C)o1 .
210.8

Now try O=C(OC[C@H]1O[C@@H](OC(=O)c2cc(O)c(O)c(OC(=O)c3cc(O)c(O)c(O)c3)c2)[C@H](OC(=O)c2cc(O)c(O)c(OC(=O)c3cc(O)c(O)c(O)c3)c2)[C@@H](OC(=O)c2cc(O)c(O)c(OC(=O)c3cc(O)c(O)c(O)c3)c2)[C@@H]1OC(=O)c1cc(O)c(O)c(OC(=O)c2cc(O)c(O)c(O)c2)c1)c1cc(O)c(O)c(OC(=O)c2cc(O)c(O)c(O)c2)c1 .
195.8

Now try Cc1nnc2n1-c1ccc(Cl)cc1C(c1ccccc1Cl)=NC2 .
188.4

Now try Brc1ccccc1 .
193.4

Now try CC(C)NNC(=O)c1ccncc1 .
178.2

Now try COC(=O)C1=C(C)NC(C)=C(C(=O)OC)C1c1ccccc1[N+](=O)[O-] .
162.8

Now try Nc1c2c(nc3ccccc13)CCCC2 .
185.6

Now try CN(C)CCC(c1ccc(Cl)cc1)c1ccccn1 (centres undefined) .
161.6

Now try NC1=NC(=O)C(c2ccccc2)O1 (centres undefined) .
168.8

Now try CN/C(=N/CCSCc1nc[nH]c1C)NC#N .
189.2

Now try CS(=O)(=O)O.Cc1ccc(NC(=O)c2ccc(CN3CCN(C)CC3)cc2)cc1Nc1nccc(-c2cccnc2)n1 [IMATINIB MESYLATE] .
170

Now try CCOc1ccc(NC(C)=O)cc1 .
163.6

Now try CCCc1cc(=O)[nH]c(=S)[nH]1 .
195.4
